- assay-method-text: Inhibition of Escherichia coli beta-glucuronidase assessed as inhibition of p-nitrophenyl-beta-D-glucuronide hydrolysis preincubated for 30 mins measured 30 mins after substrate addition by spectrophotometry
observable: IC50 (µM)

1. O=c1c(O)c(-c2ccc(O)cc2)oc2cc(O)cc(O)c12 : 27.6
2. CC(C)=C[C@@H]1C[C@](C)(/C=C/c2cc(-c3coc4cc(O)cc(O)c4c3=O)ccc2O)Oc2ccc(-c3coc4cc(O)cc(O)c4c3=O)cc21 : 14
3. CC1=C[C@H](c2cc(-c3coc4cc(O)cc(O)c4c3=O)ccc2O)[C@](C)(/C=C/c2cc(-c3coc4cc(O)cc(O)c4c3=O)ccc2O)CC1 : 0.68

====

- experimental-system: Enoyl-acyl-carrier protein reductase (Plasmodium falciparum)
- Sequence (Q965D5 whole entry): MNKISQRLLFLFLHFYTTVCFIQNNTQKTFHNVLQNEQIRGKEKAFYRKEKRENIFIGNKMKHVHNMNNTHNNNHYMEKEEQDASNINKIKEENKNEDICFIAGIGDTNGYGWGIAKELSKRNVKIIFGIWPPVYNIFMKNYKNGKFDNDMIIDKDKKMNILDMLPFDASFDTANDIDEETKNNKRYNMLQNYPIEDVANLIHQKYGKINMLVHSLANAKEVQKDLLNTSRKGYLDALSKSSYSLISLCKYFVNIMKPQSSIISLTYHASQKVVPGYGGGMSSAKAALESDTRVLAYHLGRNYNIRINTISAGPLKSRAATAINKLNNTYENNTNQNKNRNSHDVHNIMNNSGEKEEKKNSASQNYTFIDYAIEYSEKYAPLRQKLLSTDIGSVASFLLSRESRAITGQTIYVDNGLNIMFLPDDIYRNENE
pIC50: −log10 of the molar value.
Known pIC50 of a selection of molecules
observable: pIC50

1) COc1c(-c2ccc(O)c(O)c2)oc2cc(O)cc(O)c2c1=O : 4.45
2) Oc1cc(Cl)ccc1Oc1ccc(Cl)cc1Cl : 6.70

====

- experimental-system: Enoyl-acyl-carrier protein reductase (Plasmodium falciparum)
- assay-method-text: Inhibition of Plasmodium falciparum Enoyl-ACP reductase using crotonyl-CoA as substrate at 0.25 mM peincubated for 5 mins measured after 10 mins of substrate addition by UV-vis spectrophotometry
Calls of active or inactive are those of the source. The calls are words filed in the database; no cut-off is given here.
observable: inhibition

1. CC1=C[C@H](c2cc(-c3coc4cc(O)cc(O)c4c3=O)ccc2O)[C@](C)(/C=C/c2cc(-c3coc4cc(O)cc(O)c4c3=O)ccc2O)CC1 : inactive
2. COc1ccc(C(=O)O)cc1 : inactive
3. C[C@@H]1CC[C@]2(C(=O)O)CC[C@]3(C)C(=CC[C@@H]4[C@@]5(C)C[C@@H](O)[C@H](OC(=O)/C=C/c6ccc(O)cc6)C(C)(C)[C@@H]5CC[C@]43C)[C@@H]2[C@]1(C)O : 3.9%
4. O=c1c(O)c(-c2ccc(O)cc2)oc2cc(O)cc(O)c12 : 6.5%
